Target or test system: human Lck enzyme (Homo sapiens, UniProt P06239)
Construct: purchased Carna Biosciences, Inc. 08-170
Sequence (P06239 whole entry): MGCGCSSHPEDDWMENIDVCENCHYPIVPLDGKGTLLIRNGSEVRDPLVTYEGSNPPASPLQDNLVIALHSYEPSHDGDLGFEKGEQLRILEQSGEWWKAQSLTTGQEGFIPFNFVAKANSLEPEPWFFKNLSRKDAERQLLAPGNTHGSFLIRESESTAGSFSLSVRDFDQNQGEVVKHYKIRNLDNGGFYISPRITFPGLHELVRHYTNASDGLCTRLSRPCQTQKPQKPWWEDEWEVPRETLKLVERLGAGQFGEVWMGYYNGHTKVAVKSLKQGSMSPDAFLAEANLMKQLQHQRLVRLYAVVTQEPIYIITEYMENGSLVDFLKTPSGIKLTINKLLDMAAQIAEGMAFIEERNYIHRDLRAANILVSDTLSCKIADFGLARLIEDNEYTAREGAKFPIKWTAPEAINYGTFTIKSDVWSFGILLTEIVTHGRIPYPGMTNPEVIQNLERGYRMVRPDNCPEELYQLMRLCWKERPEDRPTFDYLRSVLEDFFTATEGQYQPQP
Assay explanation: Lck enzyme inhibitory activity (time-resolved fluorometry, biotinylated peptide phosphorylation)
Assay type: biochemical
Assay setup: read-out: LCK_IC50
Endpoint: IC50 (nM)

Cc1cc(-n2ncc(C(=O)c3cc4cc(OC5CCN(C(C)C)CC5)c(N5CCOCC5)cc4[nH]3)c2N)ccc1Oc1ccccc1F ... 4.5
CC(C)N1CCC(c2cc3[nH]c(C(=O)c4cnn(-c5ccc(Oc6cccc(F)c6F)cc5)c4N)cc3cc2F)CC1 ... 2.5
Cc1cc(-n2ncc(C(=O)c3cc4cc(OC5CCN(C6CCC6)CC5)c(N5C(=O)NC(C)(C)C5=O)cc4[nH]3)c2N)ccc1Oc1ccccc1F ... 21

(A) Cc1cc(Oc2c(F)cccc2F)ncc1-n1ncc(C(=O)c2cc3cc(F)c(N4C(=O)NC5(CCCCC5)C4=O)cc3[nH]2)c1N
(B) Cc1cc(Oc2c(F)cccc2F)ncc1-n1ncc(C(=O)c2cc3cc(OC4CCN(C(C)C)CC4)c(N4CCOCC4)cc3[nH]2)c1N
(C) Cc1cc(-n2ncc(C(=O)c3cc4cc(OC5CCN(C6CS(=O)(=O)C6)CC5)c(-c5ccccc5Cl)cc4[nH]3)c2N)ccc1Oc1ccccc1F
Reorder the items by IC50, least to greatest. Record the ranking as a list of labels in the requested order.
B, A, C
